Can you tell me TGI for the items I'm about to list?
- Test system: HCT-116 colon
- method notes: NCI tumour cell line growth inhibition, 48 h

Inquiry: Output measured TGI for this item: `FC(F)(F)c1nc(Br)[nH]c1C(F)(F)F`
Reply text: > 100 µM

Inquiry: Output measured TGI for this item: `Cc1cnc2[nH]c(-c3ccc(Cl)cc3)cc(=O)c2c1`
Reply text: > 29.3 µM

Inquiry: Output measured TGI for this item: COc1nc2c(c(=O)[nH]1)N=C(c1ccc(Cl)cc1)CC(c1ccccc1)N2 (centres undefined)
Reply text: > 100 µM

Inquiry: Output measured TGI for this item: Oc1cc(O)c2c(c1)OC(c1ccc(O)c(O)c1)C(O)C2c1c(O)cc(O)c2c1OC(c1ccc(O)c(O)c1)C(O)C2 (centres undefined)
Reply text: > 100 µM
